Test system: EGFR Del19/T790M/C797S (H1975-clone #28)
Assay: EGFR degradation HTRF assay, H1975-clone #28 DTC cells
Format: cell-based
Conditions: H1975 # 28 DTC cells; maximum percentage of inhibition (degradation)
The threshold is inclusive: Dmax (%) H1975 # 28 DTC of exactly 80% counts as satisfied; values below receive not satisfied.

Quick check: does CCOc1cc(N2CCC(N3CCN(CCc4cc5oc(=O)n(C6CCC(=O)NC6=O)c5cc4C)CC3)CC2)c(CC)cc1Nc1ncc(Br)c(Nc2ccc3c(=O)n(CC)ncc3c2P(C)(C)=O)n1 (stereo not drawn) [Example 554] have Dmax (%) H1975 # 28 DTC greater than or equal to 80%?
not satisfied

// next record CCOc1cc(N2CCC(N3CCN(CCc4cc5oc(=O)n(C6CCC(=O)NC6=O)c5cc4F)CC3)CC2)c(CC)cc1Nc1ncc(Br)c(Nc2ccc3c(=O)n(CC)ncc3c2P(C)(C)=O)n1 (stereo not drawn) [Example 628]
not satisfied

Next up: CCOc1cc(N2CCC(N3CCN(CC4CN(c5cccc6c5n(C)c(=O)n6C5CCC(=O)NC5=O)C4)CC3)CC2)c(CC)cc1Nc1ncc(Br)c(Nc2ccc3c(=O)n(CC)ncc3c2P(C)(C)=O)n1 (stereo not drawn) [Example 622]
not satisfied

// query: COc1cc(N2CCC(N3CCN(C(=O)[C@@H]4CCN(c5cc(F)c([C@H]6CCC(=O)NC6=O)c(F)c5)C4)CC3)CC2)c(C)cc1Nc1ncc(Br)c(Nc2ccc3c(=O)n(C)ncc3c2P(C)(C)=O)n1 [Example 527]
satisfied

Follow-up entry: CCc1cc(Nc2ncc(Br)c(Nc3cc(F)c4nc(C)ccc4c3P(C)(C)=O)n2)c(OC)cc1N1CCC(N2CCN(C(=O)C3CCN(c4cc(F)c(C5CCC(=O)NC5=O)c(F)c4)CC3)CC2)CC1 (stereo not drawn) [Example 512]
not satisfied

Entry CCOc1cc(N2CCC(N3CCN(CCc4cccc5c4n(CC)c(=O)n5C4CCC(=O)NC4=O)CC3)CC2)c(CC)cc1Nc1ncc(Br)c(Nc2cc(F)c3nc(CC)ccc3c2P(C)(C)=O)n1 (stereo not drawn) [Example 643] please
not satisfied

Another molecule to look at: CCOc1cc(N2CCC(N3CCN(CCC4CCN(c5cc(F)c6c(c5)n(CC)c(=O)n6C5CCC(=O)NC5=O)CC4)CC3)CC2)c(CC)cc1Nc1ncc(Br)c(Nc2ccc3c(=O)n(CC)ncc3c2P(C)(C)=O)n1 (stereo not drawn) [Example 640]
satisfied

Next molecule: CCc1ccc2c(P(C)(C)=O)c(Nc3nc(Nc4cc(CC)c(N5CCC(N6CCN(CCc7ccc([C@H]8CCC(=O)NC8=O)cc7)CC6)CC5)cc4OC)ncc3Br)ccc2n1 [Example 654]
not satisfied

// repeat for CCOc1cc(N2CCC(N3CCN(CCc4c(F)ccc5c4oc(=O)n5C4CCC(=O)NC4=O)CC3)CC2)c(CC)cc1Nc1ncc(Br)c(Nc2cc(F)c3nc(CC)ccc3c2P(C)(C)=O)n1 (stereo not drawn) [Example 614] and report
not satisfied

Also, CCOc1cc(N2CCC(N3CCN(C(=O)[C@H]4CN(c5cc(F)cc6c5oc(=O)n6C5CCC(=O)NC5=O)CC4(C)C)CC3)CC2)c(CC)cc1Nc1ncc(Br)c(Nc2ccc3nc(CC)ccc3c2P(C)(C)=O)n1 (stereo partly drawn) [Example 480] please.
not satisfied

How about this molecule: CCc1ccc2c(P(C)(C)=O)c(Nc3nc(Nc4cc(CC)c(N5CCC(N6CCN(C(=O)C78CCC(Nc9cc(F)c([C@H]%10CCC(=O)NC%10=O)c(F)c9)(CC7)C8)CC6)CC5)cc4OC)ncc3Br)ccc2n1 [Example 663]
not satisfied

Next molecule up: CCOc1cc(N2CCC(N3CCN(CCc4c(F)ccc5c4C(C)(C)C(=O)N5C4CCC(=O)NC4=O)CC3)CC2)c(CC)cc1Nc1ncc(Br)c(Nc2ccc3nc(CC)ccc3c2P(C)(C)=O)n1 (stereo not drawn) [Example 647]
not satisfied

Query CCOc1cc(N2CCC(N3CCN(CCc4ccc(C)c5c4oc(=O)n5C4CCC(=O)NC4=O)CC3)CC2)c(CC)cc1Nc1ncc(Br)c(Nc2ccc3nc(CC)ccc3c2P(C)(C)=O)n1 (stereo not drawn) [Example 470] next
not satisfied

Param item: CCOc1cc(N2CCC(N3CCN(CCc4cc(F)c([C@H]5CCC(=O)NC5=O)c(F)c4)[C@H](CO)C3)CC2)c(CC)cc1Nc1ncc(Br)c(Nc2ccc3nc(CC)ccc3c2P(C)(C)=O)n1 [Example 657]
satisfied

====

Biological target: EGFR L858R/C797S (BaF3 LC cells) (Homo sapiens, UniProt P00533, C797S/L858R)
Construct: expressed in transfected cells; host or cells: BaF3
Sequence (P00533 25-1210 C797S/L858R): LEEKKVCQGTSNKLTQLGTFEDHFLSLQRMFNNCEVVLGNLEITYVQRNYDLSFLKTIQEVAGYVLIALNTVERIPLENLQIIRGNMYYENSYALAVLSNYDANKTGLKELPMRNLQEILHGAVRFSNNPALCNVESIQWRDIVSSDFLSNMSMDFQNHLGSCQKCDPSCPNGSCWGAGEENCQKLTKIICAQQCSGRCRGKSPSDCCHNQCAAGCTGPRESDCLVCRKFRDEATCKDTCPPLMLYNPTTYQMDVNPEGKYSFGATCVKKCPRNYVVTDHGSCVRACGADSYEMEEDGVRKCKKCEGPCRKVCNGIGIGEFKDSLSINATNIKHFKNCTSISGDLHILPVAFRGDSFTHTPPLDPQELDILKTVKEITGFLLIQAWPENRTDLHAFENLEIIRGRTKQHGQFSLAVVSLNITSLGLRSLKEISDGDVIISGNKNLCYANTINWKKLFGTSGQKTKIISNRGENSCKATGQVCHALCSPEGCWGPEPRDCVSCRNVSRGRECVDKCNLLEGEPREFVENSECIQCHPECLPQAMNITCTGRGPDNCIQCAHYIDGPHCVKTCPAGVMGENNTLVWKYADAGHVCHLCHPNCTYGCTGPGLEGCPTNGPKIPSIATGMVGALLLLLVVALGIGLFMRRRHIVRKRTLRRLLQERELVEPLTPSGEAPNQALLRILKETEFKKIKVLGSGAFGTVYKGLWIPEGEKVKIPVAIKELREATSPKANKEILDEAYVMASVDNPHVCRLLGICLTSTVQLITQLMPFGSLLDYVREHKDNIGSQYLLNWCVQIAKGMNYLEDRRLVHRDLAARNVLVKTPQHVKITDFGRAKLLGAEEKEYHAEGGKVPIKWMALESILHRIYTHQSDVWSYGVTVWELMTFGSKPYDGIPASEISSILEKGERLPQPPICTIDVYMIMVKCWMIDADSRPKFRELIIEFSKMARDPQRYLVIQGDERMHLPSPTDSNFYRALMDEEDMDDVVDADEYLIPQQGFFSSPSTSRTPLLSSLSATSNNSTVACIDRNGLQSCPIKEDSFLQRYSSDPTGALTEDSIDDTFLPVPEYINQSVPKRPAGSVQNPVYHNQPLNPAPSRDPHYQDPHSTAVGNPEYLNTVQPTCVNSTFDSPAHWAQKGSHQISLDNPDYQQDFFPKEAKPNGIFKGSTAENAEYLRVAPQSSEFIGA
Experiment: EGFR degradation HTRF assay, BaF3 LC cells
Type: cell-based
Conditions: BaF3 LC, 16h treatment, maximum percentage of degradation; read-out: BaF3 LC Dmax (%)
Readings of Dmax for the listed compounds
The answer is to be given in %; state only the numeric part.

Use the examples below as a reference point.
{"columns": ["compound", "value_type", "val"],
 "data": [
  ["CCOc1cc(N2CCC(N3CCN(CCc4cc5oc(=O)n(C6CCC(=O)NC6=O)c5cc4C)CC3)CC2)c(CC)cc1Nc1ncc(Br)c(Nc2cc(F)c3nc(CC)ccc3c2P(C)(C)=O)n1 (stereo not shown)", "Dmax", 93.3],
  ["CCc1ccc2c(P(C)(C)=O)c(Nc3nc(Nc4cc(CC)c(N5CCC(N6CCN(CCc7cccc8c7n(C)c(=O)n8C7CCC(=O)NC7=O)CC6)CC5)cc4OC)ncc3Br)ccc2n1 (stereo not shown)", "Dmax", 94.8],
  ["CCc1cc(Nc2ncc(Br)c(Nc3ccc4nc(C)ccc4c3P(C)(C)=O)n2)c(OC)cc1N1CCC(N2CCN(C(=O)C3CN(c4cccc5c4C(C)(C)C(=O)N5C4CCC(=O)NC4=O)C3)CC2)CC1 (stereo not shown)", "Dmax", 94],
  ["CCc1ccc2c(P(C)(C)=O)c(Nc3nc(Nc4cc(CC)c(N5CCC(N6CCN(C(=O)[C@@H]7CCN(c8cc(F)c([C@H]9CCC(=O)NC9=O)c(F)c8)C7)CC6)CC5)cc4OC)ncc3Br)cc(F)c2n1", "Dmax", 90.8]
]}

Test system EGFR L858R/C797S (BaF3 LC cells) (Homo sapiens, UniProt P00533, C797S/L858R); read-out Dmax; what value for CCc1cc(Nc2ncc(Br)c(Nc3ccc4nc(C)ccc4c3P(C)(C)=O)n2)c(OC)cc1N1CCC(N2CCN(CCc3cccc4c3oc(=O)n4C3CCC(=O)NC3=O)CC2)CC1 (stereo not shown) ?
91.7

And then CCc1ccc2c(P(C)(C)=O)c(Nc3nc(Nc4cc(CC)c(N5CCC(N6CCN(CCc7ccc8c(oc(=O)n8C8CCC(=O)NC8=O)c7F)CC6)CC5)cc4OC)ncc3Br)ccc2n1 (stereo not shown) , what is it?
91.5

Then what about the compound CCOc1cc(N2CCC(N3CCN(CCc4cc(F)c(F)c5c4oc(=O)n5C4CCC(=O)NC4=O)CC3)CC2)c(CC)cc1Nc1ncc(Br)c(Nc2ccc3nc(CC)ccc3c2P(C)(C)=O)n1 (stereo not shown) ?
81.1

====

Target: EGFR L858R/T790M (H1975-clone #36, homozygous) (Homo sapiens, UniProt P00533, L858R/T790M)
Construct: designed to specifically target WT EGFR but preserve the L858R/T790M copy; host or cells: H1975-clone #36
Sequence (P00533 25-1210 T790M/L858R): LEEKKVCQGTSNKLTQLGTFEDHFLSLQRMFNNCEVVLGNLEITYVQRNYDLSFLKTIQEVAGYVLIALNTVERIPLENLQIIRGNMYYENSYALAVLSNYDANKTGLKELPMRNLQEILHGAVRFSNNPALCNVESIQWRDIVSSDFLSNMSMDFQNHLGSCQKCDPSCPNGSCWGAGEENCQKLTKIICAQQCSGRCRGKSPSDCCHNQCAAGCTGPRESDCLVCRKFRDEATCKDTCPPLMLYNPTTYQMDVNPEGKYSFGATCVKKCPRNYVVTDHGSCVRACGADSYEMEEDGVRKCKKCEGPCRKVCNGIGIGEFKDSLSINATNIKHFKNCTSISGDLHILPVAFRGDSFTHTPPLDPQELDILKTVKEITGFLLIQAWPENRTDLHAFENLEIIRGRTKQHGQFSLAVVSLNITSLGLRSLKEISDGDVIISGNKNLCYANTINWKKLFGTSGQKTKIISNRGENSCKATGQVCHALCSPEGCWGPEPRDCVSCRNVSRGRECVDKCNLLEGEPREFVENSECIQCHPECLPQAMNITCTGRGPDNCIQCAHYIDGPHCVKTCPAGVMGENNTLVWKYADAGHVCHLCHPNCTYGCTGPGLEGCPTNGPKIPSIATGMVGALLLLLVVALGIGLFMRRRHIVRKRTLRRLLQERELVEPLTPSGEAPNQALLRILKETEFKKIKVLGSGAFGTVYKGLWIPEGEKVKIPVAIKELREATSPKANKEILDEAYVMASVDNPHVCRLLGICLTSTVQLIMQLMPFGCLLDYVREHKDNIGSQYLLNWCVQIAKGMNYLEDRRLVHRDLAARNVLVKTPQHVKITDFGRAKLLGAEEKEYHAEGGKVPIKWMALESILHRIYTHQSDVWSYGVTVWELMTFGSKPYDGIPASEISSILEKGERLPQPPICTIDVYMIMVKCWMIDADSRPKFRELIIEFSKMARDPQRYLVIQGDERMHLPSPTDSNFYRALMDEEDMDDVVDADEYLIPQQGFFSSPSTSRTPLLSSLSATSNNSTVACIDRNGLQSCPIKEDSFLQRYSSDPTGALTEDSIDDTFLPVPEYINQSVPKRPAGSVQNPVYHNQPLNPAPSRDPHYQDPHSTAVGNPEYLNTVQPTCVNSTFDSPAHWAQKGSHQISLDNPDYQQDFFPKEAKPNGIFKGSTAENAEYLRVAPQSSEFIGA
Test: EGFR degradation HTRF assay, H1975-clone #36 cells
Type: cell-based
Details: NCI-H1975; H1975 #36, 16h treatment, maximum percentage of degradation
value_type: Dmax (%)
Return type: number; implicit unit %.

// below: answered compounds
{"columns": ["compound", "value_type", "val"],
 "data": [
  ["CCc1cc(Nc2ncc(Br)c(Nc3ccc4nccnc4c3P(C)(C)=O)n2)c(OC)cc1N1CCC(N2CCN(C[C@@H]3CCN(c4ccc(C5CCC(=O)NC5=O)cc4)C3)CC2)CC1 (some centres unmarked)", "Dmax", 61],
  ["COc1cc(N2CCN(CC3CCN(c4ccc(C5CCC(=O)NC5=O)cc4)CC3)CC2)c(C)cc1Nc1ncc(Br)c(Nc2ccc3nccnc3c2P(C)(C)=O)n1 (centres unmarked)", "Dmax", 54.5],
  ["COc1cc(N2CCC(N(C)CC3CCN(c4ccc(N5CCC(=O)NC5=O)cc4F)CC3)CC2)c(C)cc1Nc1ncc(Br)c(Nc2ccc3nccnc3c2P(C)(C)=O)n1", "Dmax", 12.2],
  ["CCc1cc(Nc2ncc(Br)c(Nc3ccc4nccnc4c3P(C)(C)=O)n2)c(OC)cc1N1CCC(N2CCN(CCc3ccc(C4CCC(=O)NC4=O)c(Cl)c3)CC2)CC1 (centres unmarked)", "Dmax", 75.4],
  ["CCc1cc(Nc2ncc(Br)c(Nc3ccc4nccnc4c3P(C)(C)=O)n2)c(OC)cc1N1CCC(N2CCN(CCCCCc3ccc(C4CCC(=O)NC4=O)cc3)CC2)CC1 (centres unmarked)", "Dmax", 49],
  ["CCc1cc(Nc2ncc(Br)c(Nc3ccc4nccnc4c3P(C)(C)=O)n2)c(OC)cc1N1CCC(N2CCN(C(=O)CCN3CCN(c4ccc5c(c4)C(=O)N(C4CCC(=O)NC4=O)C5=O)CC3)CC2)CC1 (centres unmarked)", "Dmax", 77.2],
  ["CCc1cc(Nc2ncc(Br)c(Nc3ccc4nccnc4c3P(C)(C)=O)n2)c(OC)cc1N1CCC(N2CCN(CC3CN(c4ccc5c(c4)C(=O)N(C4CCC(=O)NC4=O)C5=O)C3)CC2)CC1 (centres unmarked)", "Dmax", 82.5],
  ["COc1cc(N2CCN(CC3CCN(c4ccc(C5CCC(=O)NC5=O)cc4)CC3)CC2)ccc1Nc1ncc(Br)c(Nc2ccc3nccnc3c2P(C)(C)=O)n1 (centres unmarked)", "Dmax", 84.7],
  ["COc1cc(N2CCC(N(C)CC3CCN(c4ccc(C5CCC(=O)NC5=O)cc4)CC3)CC2)c(C)cc1Nc1ncc(Br)c(Nc2ccc3nccnc3c2P(C)(C)=O)n1 (centres unmarked)", "Dmax", 63],
  ["COc1cc(N2CCC(N3CCN(CCCOc4ccc(NC5CCC(=O)NC5=O)cc4)CC3)CC2)ccc1Nc1ncc(Cl)c(Nc2ccccc2NS(C)(=O)=O)n1 (centres unmarked)", "Dmax", 56.2]
]}

Here's the next entry for you.
Endpoint output: Dmax of COc1cc(N2CCC(N3CCN(CCc4ccc(NC5CCC(=O)NC5=O)cc4)CC3)CC2)ccc1Nc1ncc(Cl)c(Nc2ccccc2N(C)S(C)(=O)=O)n1 (centres unmarked) . Value?
83.9
